Target: GST P1-1 (Homo sapiens)
Construct: purchased Sigma-Aldrich
Assay: Determination of IC50 for GST P1-1 enzyme (dose-response / reconfirmation assay)
Type: biochemical
Conditions: reconfirmation assay
Exercise: for every item that follows, state its recorded Hill Slope (dose-response curve).
Answers are plain numbers.

Worked examples follow.
# compound, measured value
records = [
    ("N#Cc1c(-c2ccccc2)cc(-c2cc(Br)ccc2O)[nH]c1=O", 2.5),
    ("Cc1cc(=O)n(-c2ccccc2)[nH]1", 0.8),
    ("O=C1NC(=O)/C(=C/c2ccc(-c3ccc(F)cc3O)o2)S1", 1.95),
]

Kindly give each listed record's Hill Slope (dose-response curve).
1. CC(C)(C)C(=O)CN1C(=O)[C@H](NC(=O)Nc2cccc(C(=O)O)c2)CN(C2CCCCC2)c2ccccc21 [Nastorazepide]
2. O=C(O)[C@]1(Cc2cccc(Nc3nccs3)n2)CC[C@@H](Oc2cccc(Cl)c2F)CC1
3. CCc1ccc(/C=C2/SC(=S)NC2=O)cc1
4. O=C1C(=Cc2cccnc2)C(=O)c2ccccc21
5. C[C@@H]1Cc2c([nH]c3ccccc23)[C@@H](c2c(F)cc(/C=C/C(=O)O)cc2F)N1CC(C)(C)F
6. CCCCCCCCCCCC1=C(O)C(=O)C=C(O)C1=O

10.6
13.6
1.37
1.2
2.23
1.46

====

System: MCF-7 cells
Experiment: MTT cytotoxicity assay, MCF-7
Format: cell-based, human
Details: Homo sapiens, MCF7; MTT, 72 h incubation; read-out: IC50 (average ± standard deviation) MCF-7
Method: L929, MCF-7, and MDA-MB-231 cell lines were cultured in DMEM GlutaMAX media containing 10% heat-inactivated FBS and 1% (v/v) penicillin-streptomycin at 37°C and CO2 (5%). Cytotoxicity was determined using a 3-(4,5-dimethyl 2-thiazolyl)-2,5-diphenyl-2H-tetrazolium bromide (MTT) assay. […] The absorbance of the resulting solutions was measured at 570 and 630 nm using a SpectraMax M5e multimode microplate reader and SoftMax Pro software, version 6.2.2. […]
pIC50: −log10 of the molar value. Where a name gives a salt, the structure may show the parent alone.
Threshold rule: pIC50 greater than or equal to 5 is label 1; below that, label 0.

Some solved cases for reference:
# molecule, qualitative label
measured = [
    ("CCc1ccc(/C=C2/SC(=S)NC2=O)cc1", "label 0"),
    ("C[C@@H]1Cc2c([nH]c3ccccc23)[C@@H](c2c(F)cc(/C=C/C(=O)O)cc2F)N1CC(C)(C)F", "label 0"),
    ("O=C(O)[C@]1(Cc2cccc(Nc3nccs3)n2)CC[C@@H](Oc2cccc(Cl)c2F)CC1", "label 1"),
    ("Cc1cc(=O)n(-c2ccccc2)[nH]1", "label 0"),
    ("Oc1c(Cl)cc(Cl)c(Cl)c1Cc1c(O)c(Cl)cc(Cl)c1Cl", "label 0"),
]

Alright, here's another molecule for you.
# check: pIC50 of CC(C)N(CCC(=O)c1ccc2ccccc2c1)Cc1ccccc1 [ZM 39923 (hydrochloride)] is greater than or equal to 5
label 1

====

Exercise: for every item that follows, state its recorded Score.
Biological target: GST P1-1 (Homo sapiens, UniProt P09211)
Construct: purchased Sigma-Aldrich
Sequence (P09211 2-210 limits assumed): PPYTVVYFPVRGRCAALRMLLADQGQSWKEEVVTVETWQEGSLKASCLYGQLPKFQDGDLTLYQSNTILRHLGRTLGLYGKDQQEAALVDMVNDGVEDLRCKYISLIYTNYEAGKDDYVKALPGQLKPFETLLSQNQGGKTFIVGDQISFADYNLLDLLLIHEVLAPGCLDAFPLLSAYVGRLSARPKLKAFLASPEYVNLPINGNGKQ
Assay: High-throughput GST P1-1 inhibition assay (384-well screen, CDNB/GSH)
Format: biochemical
Conditions: compound 10 μM; score 0 = negative control (DMSO), 1 = positive control (EA 50 μM); average of duplicate
Where a name gives a salt, the structure may show the parent alone.
Answers are plain numbers.

# compound, Score
rows = [
    ("N#Cc1c(-c2ccccc2)cc(-c2cc(Br)ccc2O)[nH]c1=O [TCS PIM-1 1]", 0.813),
    ("O=C(O)c1c(Sc2ccccc2)c2cc(Cl)ccc2n1Cc1ccc(Cl)cc1 [nTZDpa]", 0.909),
    ("CC(C)N(CCC(=O)c1ccc2ccccc2c1)Cc1ccccc1 [ZM 39923 (hydrochloride)]", 0.788),
    ("Cc1cc(O)c2c(=O)c3c(O)cc(O)c4c5c(O)cc(O)c6c(=O)c7c(O)cc(C)c8c1c2c(c34)c(c78)c65 [Hypericin]", 0.774),
    ("O=C(O)[C@]1(Cc2cccc(Nc3nccs3)n2)CC[C@@H](Oc2cccc(Cl)c2F)CC1 [MK-5108]", 0.933),
    ("C=CC(=O)c1ccc2ccccc2c1 [JAK3-inhibitor-V]", 0.817),
]

Kindly give each listed record's Score.
1. O=C(O)c1ccc2cc(-c3ccc(O)c(C45CC6CC(CC(C6)C4)C5)c3)ccc2c1 [CD437]
2. O=C(O)C(=O)c1cn(Cc2ccccc2)c2ccc(-c3ccc(OC(F)(F)F)cc3)cc12 [Tiplaxtinin]

[0.939, 0.836]
